Where do the numbers come from? From PubChem BioAssay AID602264.

targetEntity: Mu-type opioid receptor (Homo sapiens) + Delta-type opioid receptor (Homo sapiens) (UniProt P35372+P41143)
Sequence (P35372 whole entry, looked up): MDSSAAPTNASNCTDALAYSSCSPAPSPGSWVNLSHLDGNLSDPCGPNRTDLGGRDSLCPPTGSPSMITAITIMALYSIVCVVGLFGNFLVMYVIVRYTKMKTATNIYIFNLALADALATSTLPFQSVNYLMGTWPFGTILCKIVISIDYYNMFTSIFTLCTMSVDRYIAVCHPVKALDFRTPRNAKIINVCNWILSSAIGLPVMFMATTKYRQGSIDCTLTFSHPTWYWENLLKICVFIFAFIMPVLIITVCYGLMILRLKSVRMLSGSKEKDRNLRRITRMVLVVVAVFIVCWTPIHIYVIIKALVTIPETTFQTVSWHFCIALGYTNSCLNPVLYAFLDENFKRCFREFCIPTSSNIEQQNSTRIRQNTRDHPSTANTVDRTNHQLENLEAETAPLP
Sequence (P41143 whole entry, looked up): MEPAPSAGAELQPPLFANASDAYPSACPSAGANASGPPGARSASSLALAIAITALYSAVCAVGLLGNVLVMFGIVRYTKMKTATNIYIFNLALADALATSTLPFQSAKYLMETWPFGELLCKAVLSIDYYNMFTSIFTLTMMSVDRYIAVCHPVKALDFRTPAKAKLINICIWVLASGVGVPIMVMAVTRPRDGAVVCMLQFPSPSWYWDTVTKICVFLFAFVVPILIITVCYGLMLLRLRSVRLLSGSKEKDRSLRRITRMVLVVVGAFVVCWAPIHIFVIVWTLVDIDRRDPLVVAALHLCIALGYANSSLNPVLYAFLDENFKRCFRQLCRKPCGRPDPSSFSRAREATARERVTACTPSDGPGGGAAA
procedureSummary: OPRM1-OPRD1 heterodimer agonist potency – cell-based, luminescence, counter-screen for MC4R biased agonist project, dose response (AID 602264)
conditionSummary: cell-based OPRM1-OPRD1 heterodimerization
Calls of active or inactive are those of the source. How the calls were made is not given here.
measurementType: EC50

CCn1c(SCC(=O)Nc2ccc(C(C)=O)cc2)nc2nc3c(cc2c1=O)CCCC3 > 64.6 µM (inactive)
CCc1ccc(CCC(=O)Nc2ncc(Cc3ccccc3Cl)s2)o1 > 92.5 µM (inactive)
Cc1ccccc1-c1nc(-c2ccc(NC(=O)c3ccc(Br)o3)cc2)no1 > 92.5 µM (inactive)

Let us move to another entry and its EC50.
`CCOC(=O)C(=CNc1ccc2c(c1)nnn2-c1ccc(Cl)cc1)C(=O)OCC` yielded EC50 of > 64.6 µM (inactive)

----------
targetEntity: Mu-type opioid receptor (Homo sapiens) + Delta-type opioid receptor (Homo sapiens) (UniProt P35372+P41143)
procedureSummary: OPRM1-OPRD1 heterodimer agonist potency – cell-based, luminescence, counter-screen for MC4R biased agonist project, dose response (AID 602264)
conditionSummary: cell-based OPRM1-OPRD1 heterodimerization
The source made the active and inactive calls. No rule for the calls is given here.
Each entry below carries its reported EC50.

`CCCOC(=O)c1cccc(Nc2nc(-c3cccnc3)nc3ccccc23)c1` yielded EC50 of > 92.6 µM (inactive)

`CC(=O)Nc1cc(-c2ccc(CO)cc2)cn2c(-c3cccc(C(F)(F)F)c3)cnc12` yielded EC50 of > 64.6 µM (inactive)

`Cc1ccccc1-c1nc(-c2ccc(NC(=O)c3ccc4c(c3)OCO4)cc2)no1` yielded EC50 of > 92.4 µM (inactive)

`CC1=NNC(=O)/C1=C\c1cn(-c2ccccc2)nc1-c1ccc(Cl)cc1` yielded EC50 of > 92.5 µM (inactive)

`Clc1ccc(C[n+]2c(-c3ccccc3)cc(-c3ccccc3)cc2-c2ccccc2)cc1` yielded EC50 of > 92.5 µM (inactive)

`COc1ccccc1-c1cc(NC=O)c2ncc(-c3ccc(F)cc3)n2c1` yielded EC50 of > 92.4 µM (inactive)

`COc1cc2nc(Nc3ccc(C)c(Cl)c3)nc(N)c2cc1OC` yielded EC50 of > 92.5 µM (inactive)

`CCOCCCN(Cc1ccco1)C(=O)c1cc2c(=O)[nH]c3ccc(C)cc3c2s1` yielded EC50 of > 64.6 µM (inactive)

NC(Cc1ccc(Cl)cc1)c1csc(Nc2ccc(-c3ccccc3)nn2)n1 (stereo unspecified) yielded EC50 of > 92.4 µM (inactive)

`COc1ccc2[nH]c3c(C)c4ccncc4c(C)c3c2c1` yielded EC50 of > 64.7 µM (inactive)

`COc1ccc2oc(=O)c(-c3csc(Nc4cccc(O)c4)n3)cc2c1` yielded EC50 of > 92.4 µM (inactive)

`COc1cccc(-c2cnc3c(NC(C)=O)cc(-c4cc(OC)c(OC)c(OC)c4)cn23)c1` yielded EC50 of > 64.6 µM (inactive)

`COc1ccc(CNCCc2ccc(Cl)cc2)cc1OCc1ccccc1` yielded EC50 of > 92.5 µM (inactive)

`CCOc1ccc(NC(=S)NC(=O)/C=C/c2ccc(C)cc2)c([N+](=O)[O-])c1` yielded EC50 of > 64.6 µM (inactive)

`CCOc1cc(CNCCc2c[nH]c3ccccc23)cc(Cl)c1OCC` yielded EC50 of > 92.5 µM (inactive)

`CCCCCCCCCCOC(=O)Cn1c(COc2ccc(OC)cc2)[n+](C)c2ccccc21` yielded EC50 of > 92.5 µM (inactive)

`CC(=O)Nc1cc(-c2ccc(F)cc2)cn2c(-c3ccc(F)c(Cl)c3)cnc12` yielded EC50 of > 64.6 µM (inactive)
